Kindly supply the reported GI50 values for the records listed here.
Test system: HOP-92 NSCLC
Test: NCI tumour cell line growth inhibition, 48 h

GI50 in this record for `C[C@H](Nc1ncnc2nc[nH]c12)c1cc2cccc(Cl)c2c(=O)n1-c1ccccc1` : 1380 nM

Record `C=CCc1c2c(c(OC)c3ccoc13)C(=O)/C(=C/c1ccccc1OC)O2` , field GI50: 2070 nM

Kindly note the recorded GI50 for `Nc1cc2cccc[n+]2c2cc(Cl)ccc12` , which is 22700 nM

Noted for `CCN(CC)S(=O)(=O)c1ccc(OC)c(Nc2ncc(-c3ccccc3)o2)c1` : its GI50 reads 7120 nM

Per the record, COc1cc(C2c3cc4c(cc3[C@@H](Nc3ccc(C#N)cc3)C3COC(=O)[C@H]23)OCO4)cc(OC)c1O (some centres not stated) has GI50 of 685 nM

Data point: COc1ccc(N2C(C)=C(C#N)C34C(=O)N(c5ccccc5)C(=O)C3=C(O)C=CC24O)cc1 (configuration not stated) ; GI50 = 12500 nM

Sure, the documented GI50 for `Cc1ccc2c(ccc3c[n+]4c5ccccc5ccc4n32)c1` is 1540 nM

----------
Tested on: MALME-3M melanoma
Test: NCI tumour cell line growth inhibition, 48 h
For each entry below, report its TGI value.

Assay MALME-3M melanoma, sample `Cc1ccc2c(ccc3c[n+]4c5ccccc5ccc4n32)c1` , TGI read: 1.59 µM

`CNC(=O)n1ccc2cc(Oc3ccnc(NC(=O)c4ccc(C5CCN(CCO)CC5)cc4)c3)c(OCCOC)cc21` on MALME-3M melanoma gives TGI = 3.15 µM

Item: `COCOc1ccc(OC)cc1` | System: MALME-3M melanoma | TGI: > 100 µM

Entry COc1ccccc1NC(=O)CC(=O)N1N=C(C)C(N=Nc2ccc(S(N)(=O)=O)cc2)C1=O (centres undefined) : TGI on MALME-3M melanoma = > 100 µM

`COC(=O)[C@H](Cc1cn(C)cn1)NC(=O)[C@H](Cc1c[nH]c2ccccc12)NC(=O)Nc1cc(C(F)(F)F)cc(C(F)(F)F)c1` tested on MALME-3M melanoma gave TGI: > 10 µM

Measured TGI for this entry `Cc1ccncc1.[O]=[Ge].[O]=[Ge].[O]=[Ge].[O]=[Ge].[O]=[Ge].[O]=[Ge][OH].[O]=[Ge][OH]` on MALME-3M melanoma: > 100 µM

Response field TGI (MALME-3M melanoma) for item CCOC1CC(=O)c2c(Br)sc(Br)c21 (centres undefined) : 40.8 µM

Here `CC(C)(C)NC(=O)[C@H]1CC[C@H]2[C@@H]3CC=C4NC(=O)CC[C@]4(C)[C@H]3CC[C@]12C` was tested on MALME-3M melanoma, and its TGI came to > 100 µM

Entry `N#Cc1c(-c2ccccc2)/c(=C\Nc2ccc(Cl)cc2)c(=O)n2c1nc1ccccc12` , tested on MALME-3M melanoma, has a reported TGI of > 100 µM

----------
System: CAKI-1 renal
Assay: NCI tumour cell line growth inhibition, 48 h
MEASURED PARAMETER: TGI

Form field TGI, entry C[C@@H](C(=O)Nc1ccc(Cl)cc1)C1CCC(c2ccnc3ccc(F)cc23)CC1 (some centres undefined) : > 100 µM

What the record says about `COCOc1ccc(OC)cc1` : TGI is > 100 µM

Entry CCOP(=O)(OCC)C1C(CO)OC(n2ccc(=O)[nH]c2=O)C1O (centres undefined) — recorded TGI = > 100 µM

So for `COc1ccc2c(c1)O/C(=C\c1cccc(OCC(=O)Nc3nc4c(s3)CCCC4)c1)C2=O` , the logged TGI turned out to be > 100 µM

Please fill in: TGI reported for CCC12C[N+]3([O-])CCc4c([nH]c5ccccc45)C(C(=O)OC)(c4cc5c(cc4OC)N(C)C4C(O)(C(=O)OC)C(OC(C)=O)C6(CC)C=CCN7CCC54C76)CC(C3)C1O2 (centres undefined) = 30.1 µM

The recorded TGI for entry `CN(C)S(=O)(=O)c1ccc(NC(=O)COC(=O)c2ccc(S(=O)(=O)N3CCCCC3)cc2)cc1` equals > 100 µM

get_value(item= `Cc1ccc(C(=O)O/N=C2/CCC/C2=C\c2ccccc2)cc1` , readout=TGI) returns > 100 µM

Lookup result for `Nc1nn2c(C(Br)Br)cc(C(Br)Br)nc2c1[N+](=O)[O-]` ; measured TGI: 0.954 µM

TGI measured on CSCCC(NCc1c(O)ccc2c(-c3ccccc3)cc(=O)oc12)C(=O)O (centres undefined) = > 100 µM
